Origin of measurements: patent US20240287046A1

target-of-assay: human NTSR-1 (Homo sapiens (Human), UniProt P30989)
Sequence (P30989 whole entry): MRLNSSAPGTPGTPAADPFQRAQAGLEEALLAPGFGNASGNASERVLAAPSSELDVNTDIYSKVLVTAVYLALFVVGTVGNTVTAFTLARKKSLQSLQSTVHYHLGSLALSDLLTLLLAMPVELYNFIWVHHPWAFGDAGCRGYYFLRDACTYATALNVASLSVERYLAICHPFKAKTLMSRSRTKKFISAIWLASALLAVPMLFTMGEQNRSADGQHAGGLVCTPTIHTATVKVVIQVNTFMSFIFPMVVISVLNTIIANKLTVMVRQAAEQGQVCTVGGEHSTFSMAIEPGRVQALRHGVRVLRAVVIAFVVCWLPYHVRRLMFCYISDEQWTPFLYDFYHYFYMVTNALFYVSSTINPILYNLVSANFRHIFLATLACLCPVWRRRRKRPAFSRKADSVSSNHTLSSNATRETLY
experiment-notes: radioligand competitive binding assay using ^177Lu labeled C-1 as reference radioligand
reported-conditions: Mean IC50 of C-1/Mean IC50 of the test compound
measured-property: Relative Binding Affinity

INSERT INTO measurements (compound, result) VALUES
  ('COc1cccc(OC)c1-c1cc(C(=O)NC2(C(=O)O)C3CC4CC(C3)CC2C4)nn1-c1ccc(N(CCCN(C)C)C(=O)COCCOCCNC(=O)CN2CCN(CC(=O)O)CCN(CC(=O)O)CC2)cc1C(C)C (centres unmarked) [Compound I-13]', 14.6);

Now let's try a different one.
[in] What does the data say about its Relative Binding Affinity? Entry: COc1cccc(OC)c1-c1cc(C(=O)NC2(C(=O)O)C3CC4CC(C3)CC2C4)nn1-c1ccc(NC(=O)CCCN(C)CCCN(C)C(=O)CN2CCN(CC(=O)O)CCN(CC(=O)O)CCN(CC(=O)O)CC2)cc1C(C)C (centres unmarked) [Compound I-5]
[out] 146.4
